system: LOX IMVI melanoma; test: NCI-60 one-dose screen, 48 h; settings: 10 µM unless noted
About 83,000 compounds went through this panel and 20% of them were active in at least one assay; those are over-represented in the sample as a whole. The source made the active and inactive calls. How the source made its calls: active means growth percent below 10; inactive means the rest.
Classes used: active, inactive

>>> df
                                   compound        test_system  qualitative_label
0  CCN=C1C=CC(=C(c2ccc(N)cc2)c2ccc(N(CC)CC)c(C)c2)C=C1  LOX IMVI melanoma             active
1  O=C(N=Nc1c(O)[nH]c2ccc(Br)cc12)c1cc(-c2ccccc2)on1  LOX IMVI melanoma           inactive
2   COc1ccc(-c2n[nH]nc2-c2csc3ccccc23)cc1OC  LOX IMVI melanoma           inactive
3  Cc1ccc(C(SCC(N)C(=O)O)(c2ccccc2)c2ccc(C)cc2)cc1 (stereo not given)  LOX IMVI melanoma           inactive
4  Cc1cc(N2CCN(C)CC2)nc(NC2CCCC(Nc3ccnc4cc(Cl)ccc34)C2)n1 (stereo not given)  LOX IMVI melanoma             active

----------
Tested on: BT-549 breast
Experiment: NCI-60 one-dose screen, 48 h (100 = growth as untreated, 0 = no growth, -100 = all killed)
Conditions: 10 µM unless noted
Experimental: Growth inhibition of the BT-549 human tumor cell line is measured as a screen for anti-cancer activity. Cells are grown in 96 well plates and exposed to the test compound for 48 hours. Compounds are tested at a single concentration, which is 10^-5 M for most compounds. The reported endpoint is percent growth (GI% or GIPRCNT), where numbers from 0 - 100% represent growth inhibition, and numbers from -100% - 0 represent cell death. For example, a value of 40 represents 60% growth inhibition. […]
This is part of a sample that, as a whole, favours compounds with a hit. Of some 83,000 tested, about 20% had one in any assay. Calls of active or inactive are those of the source. Rule for the calls: active = growth percent below 10; inactive = the rest.
Listing of entries alongside the reported growth.

compound	test-system	growth
Cc1ccccc1COc1ccc(-c2onc(C)c2-c2ccc(Cl)cc2)cc1	BT-549 breast	66.2% (inactive)
CC1SC(c2ccc(N(C)C)cc2)N(NC(=O)C(O)(c2ccccc2)c2ccccc2)C1=O (configuration not stated)	BT-549 breast	93.1% (inactive)
C/C1=C\CC[C@@]2(C)O[C@H]2[C@H]2OC(=O)C(CN3CCN(CC4C(=O)O[C@H]5[C@H]4CC/C(C)=C/CC[C@@]4(C)O[C@@H]54)CC3)[C@@H]2CC1 (some centres not stated)	BT-549 breast	105% (inactive)
O=c1c(F)cn(Cc2ccccc2CCl)c(=O)n1Cc1ccccc1CCl	BT-549 breast	-73.9% (active)
COC(=O)c1cccc(NC(=O)c2ccc(-c3cccc(N)c3)o2)c1	BT-549 breast	93.5% (inactive)
Cc1cc(N[C@@H]2CCC[C@H](Nc3ccnc4cc(Cl)ccc34)C2)nc(N2CCCCCC2)n1	BT-549 breast	-87.9% (active)
COc1ccc(/C=C\c2cc(OC)c(OC)c(OC)c2)cc1OC(=O)c1cccc(Cn2cc(CCOC(=O)[C@H](N)Cc3cn(C)c4ccccc34)nn2)c1	BT-549 breast	3.82% (active)
COc1ccc(/C=C/C(=O)c2cc(O)ccc2O)cc1	BT-549 breast	90.4% (inactive)
COc1cc(-c2nc3ccccc3[nH]2)ccc1OCC(=O)N=Nc1c(O)[nH]c2ccc(Cl)cc12	BT-549 breast	9.87% (active)
C#CC(F)(F)[C@]1(O)CC[C@H]2[C@@H]3CCC4=CC(=O)CCC4=C3[C@@H](c3ccc(C4CC4)cc3)C[C@@]21C	BT-549 breast	73.1% (inactive)
NC1=C(Cl)C(=O)c2ccc(S(N)(=O)=O)cc2C1=O	BT-549 breast	-91.5% (active)
O=C1Nc2c(ccc(Cl)c2Cl)/C1=C\c1ccc(C(F)(F)F)cc1	BT-549 breast	75.2% (inactive)
COc1ccc(C2Nc3c(c(C(C)(C)C)nn3-c3ccccc3)C(=O)CS2)cc1 (configuration not stated)	BT-549 breast	122% (inactive)
O=[N+]([O-])c1ccccc1/C=N\NC(=S)N/N=C/c1ccccc1[N+](=O)[O-]	BT-549 breast	47.4% (inactive)
Cc1nn(-c2cc(=O)[nH]c3ccccc23)c(N)c1C#N	BT-549 breast	110% (inactive)
COc1ccc2c(c1)C(=O)/C(=C/c1cccnc1)CC2	BT-549 breast	101% (inactive)
CSc1nc(-c2cccc(NC(=O)CCl)c2)c(C#N)c(=O)n1C	BT-549 breast	53.4% (inactive)
CCCCn1cnc2c(Sc3c([N+](=O)[O-])ncn3C)nc(N)nc21	BT-549 breast	98.3% (inactive)
CSc1nc(Nc2cccc(NC(=O)CCl)c2)c(C#N)c(-c2cccc([N+](=O)[O-])c2)n1	BT-549 breast	14.3% (inactive)
Cn1c(=O)c2c(nc3n(-c4ccc(Cl)cc4Cl)c(Sc4nc(-c5ccccc5)c(C#N)c(=O)[nH]4)cn23)n(C)c1=O	BT-549 breast	72.6% (inactive)
COc1ccc(/C=N/C2=C(C#N)C(c3ccc(N(C)C)cc3)c3ccc4ccccc4c3O2)cc1 (configuration not stated)	BT-549 breast	48.4% (inactive)
O=C1OC(c2ccccc2)C(O)=C1c1ccccc1 (configuration not stated)	BT-549 breast	111% (inactive)
COC[C@H](C)n1c(C2CCOCC2)nc2cnc3cc(-c4c(C)noc4C)c(OC)cc3c21	BT-549 breast	69.2% (inactive)
CCC([N+](=O)[O-])S(=O)(=O)c1ccc(C)cc1 (configuration not stated)	BT-549 breast	109% (inactive)
Cc1nc2c3c(-c4ccccc4)c(-c4ccccc4)oc3ncn2n1	BT-549 breast	101% (inactive)
CSc1ccc(-c2n[nH]nc2-c2cc3ccccc3s2)cc1	BT-549 breast	46.8% (inactive)
Cc1cc(C)nc(SC2=C(Nc3cc(Cl)ccc3O)C(=O)N(Cc3ccccc3)C2=O)n1	BT-549 breast	85.2% [30 µM] (inactive)
